B1: CPEB3 Ribozyme (parent)
chain: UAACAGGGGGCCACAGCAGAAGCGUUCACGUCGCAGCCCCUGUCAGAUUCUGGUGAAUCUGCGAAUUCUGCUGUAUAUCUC

Variants of: B1
procedureSummary: self-cleavage, relative activity (ratio to wild type); higher = more cleavage; in vitro, sequencing
Assign classes using reported self-cleavage values and the ranges A (below 0.2), B (0.2 to below 0.4), C (0.4 or more), please.

For orientation, consider the following solved cases.
{"variantDesignation": "A47U C62U", "assignedLabel": "B"}
{"variantDesignation": "C23U U25C", "assignedLabel": "A"}
{"variantDesignation": "G10C G16A", "assignedLabel": "A"}
{"variantDesignation": "U25A U74C", "assignedLabel": "B"}
{"variantDesignation": "U60G U66G", "assignedLabel": "B"}

Tag the class for A21G G70A B

For A56G U74A , which self-cleavage bin applies? C

FYI, the data here is from the RNAGym collection of RNA variant scans (doi:10.1093/nar/gkz1192).
